Values from patent US20240336653A1

- System: TGF-β
- Test Name: ELISA of TGFβ in serum of mice of the bleomycin model
- Assay type: in vivo, C57BL/6J mice
- Measurement Conditions: BLM mice, 150 μg/kg daily intraperitoneal, 14 days, FIG. 6-B
- Protocol: Molding method: 78 male C57BL/6J mice, 16-18 g in weight and 6-8 weeks old, provided by Laboratory Animal Center, Sun Yat-sen University, randomly divided into 13 groups: 1) normal control group (Normal), n=6; 2) sham-operated saline control group (Saline), n=6; 3) bleomycin model group (BLM), n=6; and 4) model treatment group: administration of 150 μg/kg series compounds to mice, 10 groups in total, n=6/group. […]
Where no end group is shown, it is not given here. [ ]: non-standard residue; d: D form. Iva = CC[C@](C)(N)C(=O)O
Readout Name: concentration of TGF-β in serum of mice

INSERT INTO measurements (substance, readout_name, obs_value) VALUES
  ('Compound 21: cyclic peptide compound, head-to-tail amide (cyclo(V[Iva]GSPSAQDEASPA); SMILES CC[C@]1(C)NC(=O)[C@H](C(C)C)NC(=O)[C@H](C)NC(=O)[C@@H]2CCCN2C(=O)[C@H](CO)NC(=O)[C@H](C)NC(=O)[C@H](CCC(=O)O)NC(=O)[C@H](CC(=O)O)NC(=O)[C@H](CCC(N)=O)NC(=O)[C@H](C)NC(=O)[C@H](CO)NC(=O)[C@@H]2CCCN2C(=O)[C@H](CO)NC(=O)CNC1=O)', 'concentration of TGF-β in serum of mice', 'significantly reduce'),
  ('(PEG2-PEG2-γGlu-CO(CH2)18CH3)-Val-Iva-Gly-Ser-Pro-Ser-Ala-Gln-Glu-Glu-Ala-Ser-Pro-Ala-NH2 (V[Iva]GSPSAQEEASPA-NH2; not fully specified (N-terminus); printed as (PEG2-PEG2-γGlu-CO(CH2)18CH3)-Val-Iva-Gly-Ser-Pro-Ser-Ala-Gln-Glu-Glu-Ala-Ser-Pro-Ala-NH2) [Compound 13]', 'concentration of TGF-β in serum of mice', 'significantly reduce'),
  ('Compound 17: cyclic peptide compound, head-to-tail amide (VVGSPSAQDEASPL; head-to-tail cyclisation; Compound 17)', 'concentration of TGF-β in serum of mice', 'significantly reduce');
